# procedureText: AMD070 PK study via SC injection: plasma, lung and liver concentration
# Format: in vivo, C57BL/6 mice
# particulars: C57BL/6, 400 ug; Lung, SC 400 μg/mouse
measuredEndpoint: Tmax

Enquiry: Need Tmax, item NCCCCN(Cc1nc2ccccc2[nH]1)[C@H]1CCCc2cccnc21 [AMD070]
Return: 1 h

====

# procedureText: AMD070 PK study via SC injection: plasma, lung and liver concentration
# Format: in vivo, C57BL/6 mice
# particulars: C57BL/6, 400 ug; Plasma, SC 400 μg/mouse
measuredEndpoint: Cmax (ng/mL)
Form entry: value (ng/mL) — number only.

Enquiry: Need Cmax, item NCCCCN(Cc1nc2ccccc2[nH]1)[C@H]1CCCc2cccnc21
Return: 700

====

# procedureText: AMD070 PK study via IP injection: plasma, lung and liver concentration
# Format: in vivo, C57BL/6 mice
# particulars: C57BL/6, lung; IP 400 μg/mouse; six hours post administration; read-out: lung concentration
measuredEndpoint: concentration at 6 h (ng/g)
Form entry: value (ng/g) — number only.

Enquiry: Need concentration at 6 h, item NCCCCN(Cc1nc2ccccc2[nH]1)[C@H]1CCCc2cccnc21 [AMD070]
Return: 3740

====

# procedureText: AMD070 PK study via IP injection: plasma, lung and liver concentration
# Assay type: in vivo, C57BL/6 mice
# particulars: C57BL/6, liver; IP 400 μg/mouse; six hours post administration; read-out: liver concentration
# Procedure: At each endpoint, animals were euthanized with CO2 and blood collected via cardiac puncture. An aliquot was set aside at room temperature for hematology measurements with remaining blood processed for plasma for drug concentration determination. […] AMD070 concentrations in mouse plasma were determined using protein precipitation extraction followed by UPLC-MS/MS analysis. […]
measuredEndpoint: concentration at 6 h (ng/g)
Form entry: value (ng/g) — number only.

Enquiry: Need concentration at 6 h, item NCCCCN(Cc1nc2ccccc2[nH]1)[C@H]1CCCc2cccnc21 [AMD070]
Return: 6470

====

# procedureText: AMD070 PK study via IP injection: plasma, lung and liver concentration
# Format: in vivo, C57BL/6 mice
# particulars: C57BL/6, 400 ug; Plasma, IP 400 μg/mouse; read-out: AUC (all time points)
measuredEndpoint: AUC (ng·h/mL)
Form entry: value (ng·h/mL) — number only.

Enquiry: Need AUC, item NCCCCN(Cc1nc2ccccc2[nH]1)[C@H]1CCCc2cccnc21 [AMD070]
Return: 1240
